- experimentNotes: Henry solubility constant Hcp at 310 K (mol/(m3 Pa))
- details: reference: Mirvish et al. (1976)
Response field class: string, computed from recorded Henry solubility constant Hcp at 310 K by ranges low-valued: < 1; mid-valued: ≥ 1 and < 2; high-valued: ≥ 2

Ask: Which of the defined bands does the recorded Henry solubility constant Hcp at 310 K of "O=NN1CCN(N=O)CC1" sit within?
Result: high-valued

Ask: Textbook exercise: identify the category of the molecule given here, "CCCN(CCC)N=O" , according to its measured value.
Result: mid-valued

Ask: State the class of the molecule shown: "O=NN1CCCCCC1"
Result: high-valued

Ask: Record "O=NN1CCCCC1" — which class?
Result: high-valued

Ask: Kindly state the category for this molecule: CC1CN(N=O)CC(C)N1N=O (stereo not given)
Result: high-valued

Ask: Any idea which band "CN(C)N=O" is in?
Result: high-valued

Ask: Where would "O=NN1CCOCC1" land among the classes by reported Henry solubility constant Hcp at 310 K?
Result: high-valued

Ask: Class label required: CC1CN(N=O)CC(C)O1 (stereo not given)
Result: high-valued

Ask: Record "CN(Cc1ccccc1)N=O" — which class?
Result: low-valued

Ask: Which category fits this record: CC(=O)N(C)N=O [methylnitrosoacetamide]
Result: low-valued

Ask: Just checking, what class would you give "CN(N=O)C(N)=O" here?
Result: high-valued

Ask: Just checking, what class would you give "CCCCN(C)N=O" here?
Result: mid-valued

Ask: Classify this molecule: "CC(C)N(N=O)C(C)C"
Result: mid-valued

Ask: Form: Item = "CCOC(=O)N(C)N=O" ; Class = ?
Result: low-valued

Ask: Returns: class label. Input: "CCN(CC)N=O"
Result: mid-valued

Ask: Could you place CCN(C#N)N=O [ethylnitrosocyanamide] in its proper category? Many thanks.
Result: low-valued

Ask: In plain terms, what class is "CCCCN(CCCC)N=O" ?
Result: low-valued

Ask: Each molecule maps to one class by Henry solubility constant Hcp at 310 K. Which class for "O=NN1CCC1" ?
Result: high-valued
